experimentDescription: Elimination half life in human
reportedEndpoint: half-life
Write the numeric value and append its unit.

input: In one line, give reported half-life of the entry COc1ccc(-n2nc(C(N)=O)c3c2C(=O)N(c2ccc(N4CCCCC4=O)cc2)CC3)cc1 .
output: 12 h

* * *

experimentDescription: Drug excretion in rat bile
Assay type: ADME, tissue-based
protocolConditions: read-out: Drug excretion
reportedEndpoint: dose excreted
Write the numeric value and append its unit.

input: In one line, give reported dose excreted of the entry COc1ccc(-n2nc(C(N)=O)c3c2C(=O)N(c2ccc(N4CCCCC4=O)cc2)CC3)cc1 .
output: 10%

* * *

experimentDescription: in vivo
protocolConditions: rat, po
reportedEndpoint: Tmax (h)
Give just the numeric value; h need not be written.

input: In one line, give reported Tmax of the entry COc1ccc(-n2nc(C(N)=O)c3c2C(=O)N(c2ccc(N4CCCCC4=O)cc2)CC3)cc1 .
output: 2
